compounds and their reported D (partition ratio), incubation 3
Assay: physchem
Type: physicochemical
Conditions: Table S2; n-octanol/PBS pH 7.4; incubation 3

| Compound | D (partition ratio), incubation 3 |
| --- | --- |
| O=C(O)c1ccccc1C(=O)Nc1ccc(S(=O)(=O)Nc2nccs2)cc1 [Phthalylsulfathiazole, reference compound] | 4.17E-02 |
| Cn1cc(C(=O)N[C@@H]2[C@@H]3CC[C@@]2(c2cc(F)c(F)c(F)c2)C3)c(C(F)F)n1 (relative stereo) [Compound 28] | 1.32E+04 |
| O=C(O)[C@@H]1[C@@H]2CC[C@@]1(C(=O)Nc1ccc(S(=O)(=O)Nc3nccs3)cc1)C2 (relative stereo) [Compound 32] | 2.75E-02 |

These measurements were taken from paper PMC10396955.
